// reported pIC50 per item
# testedTarget: human NR1/NR2B (Homo sapiens (Human), UniProt Q05586+Q13224)
# Sequence (Q13224 27-1484, other chains not shown): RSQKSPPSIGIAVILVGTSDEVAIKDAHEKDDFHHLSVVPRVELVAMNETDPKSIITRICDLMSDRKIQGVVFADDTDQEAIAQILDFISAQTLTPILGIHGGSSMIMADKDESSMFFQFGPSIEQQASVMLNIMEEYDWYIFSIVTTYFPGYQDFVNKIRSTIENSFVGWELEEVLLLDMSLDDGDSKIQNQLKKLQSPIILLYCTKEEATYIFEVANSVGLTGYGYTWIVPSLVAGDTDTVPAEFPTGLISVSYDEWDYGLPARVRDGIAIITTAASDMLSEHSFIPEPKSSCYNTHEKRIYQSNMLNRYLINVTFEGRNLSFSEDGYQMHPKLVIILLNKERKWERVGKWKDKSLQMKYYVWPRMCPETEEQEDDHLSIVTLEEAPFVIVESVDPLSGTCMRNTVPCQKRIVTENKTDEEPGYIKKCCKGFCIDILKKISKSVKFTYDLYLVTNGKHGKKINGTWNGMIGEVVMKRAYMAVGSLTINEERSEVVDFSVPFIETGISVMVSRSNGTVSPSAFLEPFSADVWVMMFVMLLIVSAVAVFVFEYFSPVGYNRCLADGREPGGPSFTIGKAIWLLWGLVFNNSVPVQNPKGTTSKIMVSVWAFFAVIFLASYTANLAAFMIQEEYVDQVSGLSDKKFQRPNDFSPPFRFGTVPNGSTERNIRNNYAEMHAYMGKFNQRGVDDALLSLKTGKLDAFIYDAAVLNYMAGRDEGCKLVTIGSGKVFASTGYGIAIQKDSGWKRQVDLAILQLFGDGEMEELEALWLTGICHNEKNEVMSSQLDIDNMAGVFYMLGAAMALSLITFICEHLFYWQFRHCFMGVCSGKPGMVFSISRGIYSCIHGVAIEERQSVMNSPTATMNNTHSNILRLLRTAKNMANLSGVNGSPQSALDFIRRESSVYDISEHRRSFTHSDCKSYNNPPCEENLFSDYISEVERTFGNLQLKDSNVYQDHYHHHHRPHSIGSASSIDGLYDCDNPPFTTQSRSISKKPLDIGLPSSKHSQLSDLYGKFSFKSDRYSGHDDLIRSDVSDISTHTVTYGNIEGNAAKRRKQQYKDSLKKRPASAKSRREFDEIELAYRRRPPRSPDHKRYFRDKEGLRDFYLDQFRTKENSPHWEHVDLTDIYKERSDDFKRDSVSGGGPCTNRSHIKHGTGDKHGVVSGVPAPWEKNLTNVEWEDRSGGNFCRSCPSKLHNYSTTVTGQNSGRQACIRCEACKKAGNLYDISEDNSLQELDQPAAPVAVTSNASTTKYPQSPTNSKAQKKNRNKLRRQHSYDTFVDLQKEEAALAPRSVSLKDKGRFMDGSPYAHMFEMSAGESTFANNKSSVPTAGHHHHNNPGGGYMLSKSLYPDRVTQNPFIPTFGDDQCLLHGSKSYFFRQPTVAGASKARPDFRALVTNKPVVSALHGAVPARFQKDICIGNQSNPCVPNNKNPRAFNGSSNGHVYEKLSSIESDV
# assayName: NR2B antagonist activity, Fluo-4 calcium influx assay in HEK293 cells
# Type: cell-based
# experimentalParameters: HEK293 cells expressing NR1/NR2B; glutamate 100 μM, glycine 50 μM; read-out: hNR2B IC50
pIC50 here is simply -log10 of the concentration when that concentration is written in mol/L.

compound="FC(F)(F)c1ccc(CCN2CCC(Nc3ncnc4[nH]ncc34)C(F)(F)C2)cn1 (racemic)" measurement=6.09

Ask: GET /values?readout=pIC50&item= FC(F)(F)c1ccc(CCN2CCC(Nc3ncnc4[nH]ccc34)C(F)(F)C2)cc1 (racemic)
Reply: 6.98

Ask: Looking for the measured pIC50 of FC(F)(F)c1ccc(CCN2CCC(Nc3ncnc4[nH]ccc34)C(F)(F)C2)cn1 (racemic) , can you help?
Reply: 5.76
